- test.name: Standard protocol for determination of kcat and KM (continuous spectrophotometric assay, Acetyl CoA hydrolysis at 235 nm)
- Format: biochemical
- applied.conditions: purified protein; about 23° C.; pH 6.8; 0.2 mM acetyl CoA; glyphosate 0.125 to 10 mM
I'd be grateful if you could share measured Km for these entries.
Numbers only, in µM.

These recorded examples may help you get a feel for the data.
SEQ ID NO: 476: GAT polypeptide (protein, 1_3A2, GAT polypeptide) MIEVKPINAEDTYELRHRILRPNQPIEACMYESDLLRGAFHLGGFYRGKLISIASFHQAEHSDLQGQKQYQLRGMATLEGYREQKAGSSLIRHAEEILRKKGADMLWCNARTTAAGYYKRLGFSEQGEVFDTPPVGPHILMYKRIT ... 800
SEQ ID NO: 282: GAT polypeptide (protein, 10_8C6, GAT polypeptide) MIEVKPINAEDTYEIRHRILRPNQPLEACKYETDLLGGAFHLGGYYRGKLISIASFHQAEHPELEGQKQYQLRGMATLEGYREQKAGSTLIRHAEELLRKKGADLLWCNARTSASGYYKKLGFSEQGGVYDIPPVGPHILMYKKLT ... 700
SEQ ID NO: 446: GAT polypeptide (protein, 0_5D7, GAT polypeptide) MIEVKPINAEETYELRHRILRPNQPIEACMYETDLLRGAFHLGGFYRGKLISIASFHQAEHSELEGQKQYQLRGMATLEGYRDQKAGSSLIRHAEQLLRKKGANMLWCNARTTASGYYKKLGFSEQGEIFDTPPVGPHILMYKRIT ... 1100
SEQ ID NO: 427: GAT polypeptide (protein, 9_20F12, GAT polypeptide) MIEVKPINAEDTYEIRHRVLRPNQPLEACMYETDLLGGTFHLGGYYRGELVSIASFHQAEHPELEGQKQYQLRGMATLEGYREQKAGSTLIRHAEELLRKKGADLLWCNARTSASGYYKKLGFSEQGGVYDIPPVGPHILMYKKLT ... 1000
SEQ ID NO: 309: GAT polypeptide (protein, 14_11C2, GAT polypeptide) MIEVKPINAEDTYEIRHRILRPNQPLEACKYETDLLGSTFHLGGYYRGKLVSIASFHQAEHPELEGQKQYQLRGMATLEEYREQKAGSTLIRHAEALLRKKGADLLWCNARTSASGYYKKLGFSEQGEVYDTPPTGPHILMYKKLT ... 1000

Here's the next entry for you.
Problem: Dear colleague, I am looking for the recorded Km of the following molecule: SEQ ID NO: 327: GAT polypeptide (protein, 15_11F9, GAT polypeptide) MIEVKPINAEDTYEIRHRILRPNQPLEACKYETDLLRGAFHLGGYYRGKLVSIASFNQAEHPELEGQKQYQLRGMATLEGYREQKAGSTLIRHAEELLRRKGADLLWCNARTSASGYYKKLGFSEQGEVYDIPPTGPHILMYKKLT
Result: 1000
